assay_explanation: Inhibition of NADPH oxidase in mouse BV2 cells assessed as NOX-dependent ROS production
applied_conditions: BV-2
pIC50: −log10 of the molar value.

- smiles_representation: "c1ccc2c(c1)[I+]c1ccccc1-2"
  pIC50: 4.80

* * *

Reported values of EC50 for individual entries
Test system: KB
assay_explanation: Cytotoxicity against human KB cells
Type: functional, cell-based

- smiles_representation: "C=C1C(=O)[C@]23C[C@H]1CC[C@H]2[C@]1(C)CCC[C@](C)(CO)[C@H]1C[C@H]3O"
  subject_of_test: "KB"
  EC50 (µg/mL): 0.87
- smiles_representation: "C=C1C(=O)[C@@]23[C@H](O)C[C@@H]4[C@@](C)(COC(C)=O)CCC[C@@]4(C)[C@@H]2CC[C@@H]1[C@H]3O"
  subject_of_test: "KB"
  EC50 (µg/mL): 0.93
- smiles_representation: "C=C1C(=O)[C@@]23[C@H](O)C[C@@H]4C(C)(C)CCC[C@@]4(C)[C@@H]2CC[C@@H]1[C@H]3O"
  subject_of_test: "KB"
  EC50 (µg/mL): 0.64
- smiles_representation: "C=C1C(=O)[C@@]23CC[C@@H]4[C@@](C)(CO)CCC[C@@]4(C)[C@@H]2CC[C@@H]1C3"
  subject_of_test: "KB"
  EC50 (µg/mL): 1.47
- smiles_representation: "C=C1C(=O)[C@@]23CC[C@H]4[C@@](C)(CCC[C@]4(C)C(=O)O)[C@@H]2CC[C@@H]1C3"
  subject_of_test: "KB"
  EC50 (µg/mL): 1.04
- smiles_representation: "C=C1C(=O)[C@@]23CC[C@@H]4[C@@](C)(COC(C)=O)CCC[C@@]4(C)[C@@H]2CC[C@@H]1C3"
  subject_of_test: "KB"
  EC50 (µg/mL): 3.75
- smiles_representation: "C=C1C(=O)[C@]23C[C@H]1CC[C@H]2[C@]1(C)CCC[C@](C)(COC(C)=O)[C@H]1C[C@H]3O"
  subject_of_test: "KB"
  EC50 (µg/mL): 0.71
- smiles_representation: "C=C1C(=O)[C@]23C[C@H]1CC[C@H]2[C@]1(C)CCCC(C)(C)[C@H]1C[C@H]3O"
  subject_of_test: "KB"
  EC50 (µg/mL): 0.79
- smiles_representation: "C=C1C(=O)[C@@]23[C@H](O)C[C@@H]4C(C)(C)CC[C@@H](OC(C)=O)[C@@]4(C)[C@@H]2CC[C@@H]1[C@H]3O"
  subject_of_test: "KB"
  EC50 (µg/mL): 0.91
